Tested on: LNCaP cells
Experiment: MTT assay in LNCaP cells
Format: cell-based, human
Conditions: Homo sapiens, 72 hours, read-out: IC50 at 72 hours
observationType: pIC50
Give only the number. pIC50 is defined as minus log10 of concentration in molar units.

Ask: Would you kindly share the measured pIC50 for `N=C(NCCC1CCN(Cc2ccccc2)CC1)c1ccc(/N=N/Nc2ccc(C(=N)NCCC3CCN(Cc4ccccc4)CC3)cc2)cc1` ?
Reply: 5.57

###

Tested on: MALAT1 triple helix
Assay: RNase A enzymatic degradation assay
Assay type: biochemical, human
Conditions: 5-minute time point, relative to DMSO control
observationType: stabilizer or destabilizer of MALAT1 triplex (RNase A degradation)

INSERT INTO assay_data (compound, measured) VALUES
  ('N=C(N)c1ccc(/N=N/Nc2ccc(C(=N)N)cc2)cc1 [DMZ-P0, diminazene, reference compound]', 'destabilizers'),
  ('CN(C)CCCNC(=N)c1ccc(/N=N/Nc2ccc(C(=N)NCCCN(C)C)cc2)cc1 [DMZ-P1]', 'destabilizers'),
  ('N=C(NCc1ccccc1)c1cccc(/N=N/Nc2cccc(C(=N)NCc3ccccc3)c2)c1', 'destabilizers');

###

System: MALAT1 triple helix
Test: RiboGreen indicator displacement assay (IDA)
Format: binding, human
observationType: affinity for the MALAT1 triple helix (IDA), in words

INSERT INTO assay_data (smilestext, measured) VALUES
  ('N=C(NCCc1cccnc1)c1cccc(/N=N/Nc2cccc(C(=N)NCCc3cccnc3)c2)c1', 'moderate affinity'),
  ('N=C(NCc1ccco1)c1cccc(/N=N/Nc2cccc(C(=N)NCc3ccco3)c2)c1', 'moderate affinity');

Recorded values, source patent US20250270165A1.
